# assay-system: porcine pancreatic kallikrein (porcine, UniProt P00752 8-246)
# Sequence (P00752 8-246): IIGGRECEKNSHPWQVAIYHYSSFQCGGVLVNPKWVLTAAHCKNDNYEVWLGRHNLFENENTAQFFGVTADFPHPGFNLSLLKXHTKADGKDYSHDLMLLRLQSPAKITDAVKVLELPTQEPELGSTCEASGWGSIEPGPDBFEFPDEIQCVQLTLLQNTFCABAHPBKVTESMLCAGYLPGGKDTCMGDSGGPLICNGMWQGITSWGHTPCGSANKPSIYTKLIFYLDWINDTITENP
# protocol: protease inhibition, Ki,app
measure-name: Ki (µM)
Quick reminder: number only, in µM, skip the unit.

The reported Ki of the binder PEP-1 KI polypeptide (designed binder, Non-naturally occurring Kunitz domain polypeptide from a phage display library; Molecular weight 7,054 Daltons) EAMHSFCAFKADDGPCRAAHPRWFFNIFTRQCEEFIYGGCEGNQNRFESLEECKKMCTRD was 27
